target: hGLP-1R (Homo sapiens, UniProt P43220); test: cell-based or functional assay
Sequence (P43220 24-463): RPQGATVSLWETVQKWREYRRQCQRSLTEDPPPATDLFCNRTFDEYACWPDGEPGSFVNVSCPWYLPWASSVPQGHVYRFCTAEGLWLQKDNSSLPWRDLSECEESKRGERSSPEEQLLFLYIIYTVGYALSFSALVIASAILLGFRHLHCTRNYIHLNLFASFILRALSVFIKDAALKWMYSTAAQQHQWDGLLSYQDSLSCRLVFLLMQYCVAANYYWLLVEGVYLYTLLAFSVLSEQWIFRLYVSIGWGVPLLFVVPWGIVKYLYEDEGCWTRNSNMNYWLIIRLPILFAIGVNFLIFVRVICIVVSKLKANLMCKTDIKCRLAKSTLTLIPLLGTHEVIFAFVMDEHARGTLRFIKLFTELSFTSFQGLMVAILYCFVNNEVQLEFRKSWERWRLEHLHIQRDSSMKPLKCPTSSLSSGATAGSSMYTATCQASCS
Non-standard residues stand in square brackets, D forms with d. No end group written: not given here. αMeL = CC(C)C[C@](C)(N)C(=O)O; Aib = CC(C)(N)C(=O)O
cAMP Rel EC50 (in the presence of 1% HSA) by entry:
Give the quantity in nM, number only.

For orientation, consider the following solved cases.
Y[Aib]QGTFTSDFSK[αMeL]LDKKAQQAFIEYLLA[Aib]GPSSGAPPPSEG-NH2 (not fully specified (residue 17)) [Example 30]; 806
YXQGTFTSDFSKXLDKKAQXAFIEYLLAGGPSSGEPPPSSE (synthetic construct; SITE 2: note = 2-Aminoisobutyric Acid; SITE 13: note = alpha-methyl-leucine; SITE 17: note = Lysine is chemically modified through conjugation of the epsilon-amino group of the Lysine side chain with (2-[2-(2-Amino-ethoxy)-ethoxy]-acetyl)-(gamma-Glu)-CO-(CH2) 18-CO2H; SITE 20: n) [Example 3]; 546

Now look at this one.
Returns the measured cAMP Rel EC50 (in the presence of 1% HSA) for the input binder. Input: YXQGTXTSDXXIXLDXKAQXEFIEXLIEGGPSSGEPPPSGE (non-natural residues, lysine acylation, C-terminal amide; synthetic construct; SITE 2: note = 2-Aminoisobutyric Acid; SITE 6: note = alpha-methyl-L-phenylalanine; SITE 10: note = 3-(4-Pyridyl)-L-alanine; SITE 11: note = alpha-methyl-L-serine; SITE 13: note = alpha-methyl-leucine; SITE 16: note = L-ornithine; SITE 17: note = Lysine is chemically modified th) [Example 1171]
52.9
